Test system: L1210 leukemia ip in BDF1 mice, survival T/C
Assay: NCI In Vivo Anticancer Drug Screen. Data for tumor model L1210 Leukemia (intraperitoneal) in B6D2F1 (BDF1) mice
Conditions: endpoint: mean survival time; dose: 150.0 mg/kg/injection; schedule: Q01DX001 (ip); vehicle: saline; higher = longer survival
Toxic doses and inconclusive results are not listed.
# T/C per record follows

Some solved entries appear below for comparison.
> print(dat)
                                    compound  experimental.result
 1  COc1ccccc1C1CCCCCCC1OS(=O)(=O)c1ccc(C)cc1 (stereo not drawn)      93 % of control
 2  CCOC(=O)C(CO)NS(=O)(=O)c1ccc(C)cc1 (stereo not drawn)     106 % of control
 3  COc1ccc2c3c1OC1C(O)CCC4C(C2)N(C)CCC341 (stereo not drawn)      94 % of control
 4                    CN1C2CCCCC1C1CCCCC2N1C      94 % of control
 5  CCCCCCCC/C=C\CCCCCCCC(=O)NCC[N+]1(C)CCCCC1      97 % of control
 6                   O=S1(=O)C2CCCC1(Cl)CCC2     102 % of control
 7                  CCOC(=O)N/N=C/c1ccccc1OC      90 % of control
 8                   COc1cccc(CNC(C)(C)CO)c1     102 % of control
 9                Cc1c[n+](Cc2ccccc2)cc(C)n1      98 % of control
10  C=COC(=O)NC(C(=O)O)C(C)CC (stereo not drawn)     103 % of control

-- ask Any idea what its T/C is? The compound is `O=C(O)c1c(-c2nccc3ccccc23)[nH]c(-c2ccccc2)c1S(=O)(=O)O`
-- reply 101 % of control

-- ask Please look up its T/C: CC1CC(=O)C(CN(C)C)C(C)(C)C1 (stereo not drawn)
-- reply 100 % of control

-- ask Sample `C=CCCC1(CC=C)C(=O)NC(=O)NC1=O` — what was its T/C?
-- reply 104 % of control

* * *

The entries below come with measured T/C values attached.
Test system: L1210 leukemia ip in BDF1 mice, survival T/C
Experiment: NCI In Vivo Anticancer Drug Screen. Data for tumor model L1210 Leukemia (intraperitoneal) in B6D2F1 (BDF1) mice
Conditions: endpoint: mean survival time; dose: 200.0 mg/kg/injection; schedule: Q01DX001 (ip); vehicle: Klucel (hydroxypropylcellulose) (HPC); higher = longer survival
Procedure: The antitumor activity of compounds was measured in mice bearing transplantable tumors. Survival or tumor size were measured and the results are expressed as the measurement made in the treated group (T) divided by the measurement made in the vehicle treated control group (C). The tumor model used in this assay is L1210 Leukemia (intraperitoneal) in B6D2F1 (BDF1) mice
Toxic doses and inconclusive results are not listed.

> print(dat)
                                   compound                          target.or.system  experimental.result
1                          Clc1ncnc2ccccc12  L1210 leukemia ip in BDF1 mice, survival T/C      95 % of control
2  OC(c1ccccc1)c1nnc(C(O)c2ccccc2)nn1 (stereo not drawn)  L1210 leukemia ip in BDF1 mice, survival T/C      95 % of control
3  O=C1C(Cl)=C(Cl)C2(Cl)C1(Cl)C1(Cl)C(=O)C(Cl)=C(Cl)C12Cl (stereo not drawn)  L1210 leukemia ip in BDF1 mice, survival T/C      97 % of control
4        Cc1ccccc1N=Cc1cccc([N+](=O)[O-])c1  L1210 leukemia ip in BDF1 mice, survival T/C     107 % of control
5  N#CC1C(=O)NC(=O)C(C#N)C12CCN(Cc1ccccc1)CC2 (stereo not drawn)  L1210 leukemia ip in BDF1 mice, survival T/C      97 % of control

-- ask Which T/C reading was recorded for the compound `Oc1ccc2ccccc2c1N=Nc1nccs1` ?
-- reply 101 % of control

-- ask // query T/C value for entry `COc1cc(CCN)ccc1OCc1ccccc1`
-- reply 94 % of control

-- ask Find the recorded T/C belonging to `Cc1nc(N)[nH]c(=O)c1CCCNc1cccc(C(F)(F)F)c1` and report it.
-- reply 92 % of control

-- ask Quick check: T/C of `CCc1c(N)nc(=O)[nH]c1C(=O)O` ?
-- reply 118 % of control

-- ask Any idea what its T/C is? The compound is `O=c1c2ccccc2ccc2ccccc12`
-- reply 93 % of control

-- ask Query (compound): `NNC(=O)CNc1ccccc1` ; field requested: T/C
-- reply 117 % of control

-- ask Suppose we examine the compound `Clc1ccc(S/C=C/c2ccccc2)cc1` ; what T/C value has been reported?
-- reply 110 % of control

-- ask Please look up its T/C: `O=C(O)CCc1c(O)cc(Br)c(O)c1Br`
-- reply 93 % of control

* * *

Test system: L1210 leukemia ip in BDF1 mice, survival T/C
Assay: NCI In Vivo Anticancer Drug Screen. Data for tumor model L1210 Leukemia (intraperitoneal) in B6D2F1 (BDF1) mice
Settings: endpoint: mean survival time; dose: 100.0 mg/kg/injection; schedule: Q01DX009 (ip); vehicle: saline; higher = longer survival
Toxic doses and inconclusive results are not listed.
readout: T/C

> print(dat)
                                   molecule  readout  experimental.result
1  CNC(=O)N(C)C1C(OC)OC2COC(c3ccccc3)OC2C1O (stereo not drawn)      T/C     100 % of control
2  COc1cccc(/C=C2/COC/C(=C\c3cccc(OC)c3OC)C2=O)c1OC      T/C      91 % of control
3                        Cc1cc(CN)c(C)cc1CN      T/C      95 % of control
4            CC(C)C(NCCNC(C(C)C)C(C)C)C(C)C      T/C     102 % of control

-- ask Fill in the blank: the reported T/C of C/C(=C\COC1CCCCO1)CCC1OC1(C)C (stereo not drawn) is ____.
-- reply 108 % of control

-- ask For the molecule `CC12CC3CC(C1)CC(C(=O)O)(C3)C2` , what T/C is on record?
-- reply 110 % of control

-- ask # lookup: T/C of `C[n+]1csc(=S)[nH]1`
-- reply 98 % of control

* * *

T/C listing for selected compounds.
Tested on: L1210 leukemia ip in BDF1 mice, survival T/C
Assay: NCI In Vivo Anticancer Drug Screen. Data for tumor model L1210 Leukemia (intraperitoneal) in B6D2F1 (BDF1) mice
Details: endpoint: mean survival time; dose: 50.0 mg/kg/injection; schedule: Q01DX009 (ip); vehicle: saline with Tween-80; higher = longer survival
Inconclusive results and toxic doses are left out.

-- ask // returns reported T/C for input `Cc1cc(=O)n(C)c2ccccc12`
-- reply 97 % of control

-- ask GET /values?readout=T/C&item= `O=c1[nH]n(-c2ccccc2)c(=O)cc1Cl`
-- reply 97 % of control

-- ask Request the reported T/C associated with `Cc1ccc([N+](=O)[O-])cc1NC(=O)NNC(=O)CNC(=O)Nc1ccc(F)cc1`
-- reply 86 % of control

-- ask Given `Cc1ccc(S(=O)(=O)Cl)cc1C(=O)O` , state its recorded T/C.
-- reply 93 % of control

-- ask What value of T/C has been recorded for this entry: `N#CCCCC(=O)c1ccccc1`
-- reply 102 % of control

* * *

Tested on: L1210 leukemia ip in BDF1 mice, survival T/C
Assay: NCI In Vivo Anticancer Drug Screen. Data for tumor model L1210 Leukemia (intraperitoneal) in B6D2F1 (BDF1) mice
Conditions: endpoint: mean survival time; dose: 200.0 mg/kg/injection; schedule: Q01DX001 (ip); vehicle: saline; higher = longer survival
Toxic doses and inconclusive results are not listed.
readout: T/C

Observe how each entry below is paired with its result.
> print(dat)
                                   molecule  experimental.result
1  Cn1cc2c(=O)n(OS(=O)(=O)c3ccccc3)c(=O)[nH]c2n1     106 % of control
2  O=S1(=O)CC(c2ccc(Br)cc2)Nc2ccccc21 (configuration not stated)     101 % of control
3      Cc1ccc2cc3c(cc(C)c4ccccc43)c3c2c1CC3      96 % of control
4           Cc1cc(Cc2cc(C)c(N)cc2N)c(N)cc1N      93 % of control
5  CCCCC(CCCC)=NNc1ccc([N+](=O)[O-])cc1[N+](=O)[O-]     102 % of control

-- ask Entry O=C1C2C(C(=O)N1c1ccccc1)C(c1ccccc1)N(c1ccccc1)C2c1ccccc1 (configuration not stated) : reported T/C = ?
-- reply 100 % of control

-- ask Would you kindly share the measured T/C for `N#CCC(=O)N1CCCC1` ?
-- reply 98 % of control

-- ask Please give the measured T/C for this molecule: CCOP(=S)(NN=C1CCC(C(C)(C)C)CC1)OCC (configuration not stated)
-- reply 97 % of control

-- ask Entry `Clc1cccc(Cl)c1/C=N/Nc1nnc(N/N=C/c2c(Cl)cccc2Cl)c2ccccc12` : reported T/C = ?
-- reply 100 % of control

-- ask Looking for the measured T/C of CCOC(=O)C1=NN(c2ccccc2)C(=O)C1N=Nc1ccc(S(N)(=O)=O)cc1 (configuration not stated) , can you help?
-- reply 93 % of control

-- ask Which measured T/C value corresponds to `Cc1cc(/C=C\[N+](=O)[O-])c(C)c2c1oc1ccccc12` ?
-- reply 96 % of control

-- ask T/C lookup needed for `CNCCc1ccc(O)cc1` , thanks.
-- reply 102 % of control
